# assay details: Bidirectional transport, NCI-H441/dTHP co-culture model
# Assay type: in vitro ADME, human
# condition summary: human; NCI-H441/dTHP, 2 μM, Mean ± SD, n = 3
assay metric: Papp B→A at 2 h, 2 µM (×10⁻⁶ cm/s)

>>> measured_value("COCCc1ccc(OCC(O)CNC(C)C)cc1 (centres unmarked) [Metoprolol]")
24.4
>>> measured_value("CC[C@@]1(O)C(=O)OCc2c1cc1n(c2=O)Cc2cc3c(CN(C)C)c(O)ccc3nc2-1 [Topotecan]")
6.18

---

# assay details: Permeability assay, LLC-PK1-MOCK cells
# Type: in vitro ADME
# condition summary: pig; LLC-PK1, 2 μM; read-out: ER
Parameter efflux ratio at 2 h, 2 µM: see the listing below.
assay metric: efflux ratio at 2 h, 2 µM

>>> measured_value("C[C@H]1O[C@@H](O[C@H]2[C@@H](O)C[C@H](O[C@H]3[C@@H](O)C[C@H](O[C@H]4CC[C@@]5(C)[C@H](CC[C@@H]6[C@@H]5C[C@@H](O)[C@]5(C)[C@@H](C7=CC(=O)OC7)CC[C@]65O)C4)O[C@@H]3C)O[C@@H]2C)C[C@H](O)[C@@H]1O")
1.35
>>> measured_value("COCCc1ccc(OCC(O)CNC(C)C)cc1 (centres unmarked)")
0.9

This collection of values is drawn from paper PMC11858854.
